# tested target: Tyrosine-protein kinase Fes/Fps (Homo sapiens)
# assay remarks: Binding affinity to human recombinant FES expressed in Escherichia coli assessed as thermal shift by differential scanning fluorimetry
Items are presented alongside their recorded Tm.

# count of solved cases: 2
# compound, tested target, result
measured = [
    ("C[C@H]1CCCC(=O)[C@@H](C)CC/C=C/c2cc(O)cc(O)c2C(=O)O1", "Tyrosine-protein kinase Fes/Fps (Homo sapiens)", "< 2 °C"),
    ("C[C@@H]1C[C@H]2O[C@@H]2/C=C\\C=C\\C(=O)Cc2c(Cl)c(O)cc(O)c2C(=O)O1", "Tyrosine-protein kinase Fes/Fps (Homo sapiens)", "< 2 °C"),
]

Field request: Tm | item: `C[C@H]1CCCC(=O)CCC/C=C/c2cc(O)cc(O)c2C(=O)O1`
< 2 °C

Field request: Tm | item: `COc1cc(O)c2c(c1)/C=C/CC[C@H](C)C(=O)CCC[C@H](C)OC2=O`
< 2 °C

Field request: Tm | item: `COC1=C2C[C@@H](C)C[C@H](OC)[C@H](O)[C@@H](C)/C=C(\C)[C@H](OC(N)=O)[C@@H](OC)/C=C\C=C(/C)C(=O)NC(=CC1=O)C2=O`
< 2 °C

Field request: Tm | item: `COc1cc2c(c(OC)c1)C(=O)O[C@@H](C)CCCC(=O)[C@@H](C)CC/C=C/2`
< 2 °C

Field request: Tm | item: `COc1cc2c(c(OC)c1)C(=O)O[C@@H](C)CCC[C@@H](O)[C@@H](C)CC/C=C/2`
< 2 °C
